- Test system: Wolbachia pipientis
- measurement.description: Anti-Wolbachia Cell-Based Screen
- Format: functional
- Design: scale not given: in the data most compounds retested in dose-response had high values
- assay.conditions: 5 µM
Out of some 48,000 compounds screened, about 13,000 (27%) showed an effect of 50% or more. The list shows a part of the results.
Provide the reported Percent Effect of each item.
Answers are plain numbers, in %.

// worked examples, Percent Effect included
>>> print(df.to_string())
                                   molecule  measurement_name  reported_measurement
0  Cc1ccc(N2CC[C@@H]3[C@@H]2CCN3C(=O)Cc2ccsc2)nn1.O=C(O)C(F)(F)F    Percent Effect                  97.7
1  CN(C)C(=O)N1CC[C@H]2[C@H]1CCN2c1nncs1.O=C(O)C(F)(F)F    Percent Effect                -1.539
2  O=C1OC2(CCNCC2)CN1CC(=O)N1CCC1c1cccs1 (stereo not drawn)    Percent Effect                -13.03

Give Percent Effect for all molecules that follow.
1. COc1ccccc1CNCc1nn(-c2ccccc2)c2c1CCC2
2. O=C(c1ccc(Cl)cc1)N1CC2(CCNC2)OCc2ccccc21 (stereo not drawn)
3. Cc1ccc(C(C(=O)NCCc2nc(C)cc(=O)[nH]2)N(C)C)cc1 (stereo not drawn)

-29.63
113.7
-13.39

Batch request: Percent Effect for each of the following molecules.
1. N#Cc1cccc(CS(=O)(=O)NCC(O)Cc2ccccc2)c1 (stereo not drawn)
2. Cc1nnc(NC(=O)NCc2cc(F)cc(F)c2)s1
3. Cc1ccc(N2CC[C@@H]3O[C@@H](COCc4cccnc4)CC[C@@H]32)nn1.O=C(O)C(F)(F)F.O=C(O)C(F)(F)F
4. O=C(COC1CCCC1)N1C[C@@H]2CN(Cc3ccoc3)CCO[C@@H]2C1.O=C(O)C(F)(F)F
5. COc1ccc(Cl)cc1C(=O)N1CCOC2(CNCCOC2)C1 (stereo not drawn)
6. CNc1cc(N2CCC(O)(CNC(=O)c3ccc(C)nc3)C2)ncn1 (stereo not drawn)
7. NCc1cn(-c2ccccc2C(=O)NCc2ccccc2)cn1

[-5.845, 4.254, 4.893, -10.48, -14.44, 87.58, 2.452]
